Recorded values, source PubChem BioAssay (NCI).

# Tested on: NCI/ADR-RES ovarian
# assay_info: NCI-60 one-dose screen, 48 h (100 = growth as untreated, 0 = no growth, -100 = all killed)
# run_parameters: 10 µM unless noted
About 83,000 compounds went through this panel and 20% of them were active in at least one assay; those are over-represented in the sample as a whole.

- compound: "COc1ccc(C(c2cc(OC)c(OC)c(OC)c2)N2CCN(c3ccccc3)CC2)cc1 (stereo not given)"
  growth [%]: 85.9
- compound: "O=C1N[C@@H]2NC(=[N+]3CCOCC3)N[C@@H]2N1"
  growth [%]: 102
- compound: "COc1ccc(-c2cn(-c3cc(OC)c(OC)c(OC)c3)c(=O)n2C(C)=O)cc1"
  growth [%]: 98.5
- compound: "O=C1c2c(c3c4ccccc4[nH]c3c3ccc4ccccc4c23)C(=O)N1CCN1CCCCC1"
  growth [%]: 40.9
- compound: "O=Nc1c(-c2c(O)[nH]c3ncccc23)[nH]c2ccccc12"
  growth [%]: 71.8
- compound: "N#Cc1nn(-c2cc(=O)[nH]c3ccc(Cl)cc23)c(N)c1C#N"
  growth [%]: 98.5
- compound: "N#Cc1c(-c2ccccc2)cc(-c2ccccc2)n(CCCCCC(=O)Nc2ccccc2N)c1=O"
  growth [%]: 49
- compound: "COc1ccc2[nH]cc(-c3nc(-c4c[nH]c5ccncc45)cs3)c2c1"
  growth [%]: 59.9
- compound: "Nc1nc(=S)c2ncn(C3OC(COP(=O)(O)O)C(O)C3O)c2[nH]1 (stereo not given)"
  growth [%]: 20.9
- compound: "S=C(Nc1ccc(-c2nc(N3CCOCC3)c3cccn3n2)cc1)Nc1cccnc1"
  growth [%]: 26.3

* * *

# System: OVCAR-5 ovarian
# assay_info: NCI-60 one-dose screen, 48 h (100 = growth as untreated, 0 = no growth, -100 = all killed)
# run_parameters: 10 µM unless noted
The panel holds about 83,000 compounds, 20% with a hit somewhere; the sample as a whole holds those more often. Activity calls are given as the source filed them. How the source made its calls: active means growth percent below 10; inactive means the rest.
parameter: growth

- compound: "CCn1cc(C(=O)N/N=C/c2cccs2)c(=O)c2cc(F)c(N3CCNC(C)C3)c(F)c21 (stereo not given)"
  result: "67.2% (inactive)"
- compound: "COc1ccc(C(=S)N2CCN(c3ccccc3Cl)CC2)cc1OC"
  result: "95.2% (inactive)"
- compound: "OCCOCCN(Cc1ccccn1)Cc1cc(I)cc(I)c1O"
  result: "92.5% (inactive)"
- compound: "CCN1C(=O)N(CC)C2C1NN=c1s/c(=C\\c3ccc(Cl)cc3Cl)c(=O)n12 (stereo not given)"
  result: "28.2% (inactive)"
- compound: "CN([O-])c1nc(N(C)[O-])nc(N2CCOCC2)n1.CN([O-])c1nc(N(C)[OH2+])nc(N2CCOCC2)n1.[Fe+3]"
  result: "110% [100 µM] (inactive)"
- compound: "OCCCC1CCN(C(Cc2ccccc2)c2ccccc2)CC1 (stereo not given)"
  result: "60.2% (inactive)"
- compound: "O=C(Cn1cc(CN2CCCCCC2)nn1)Nc1ccc2c(ccn2Cc2ccccc2)c1"
  result: "105% (inactive)"
- compound: "COC(=O)CCC(=O)C(=O)OC"
  result: "23.6% [10 mM] (inactive)"
- compound: "Fc1ccc(-c2nn(-c3ccccc3)cc2-c2nc3ccccc3o2)cc1"
  result: "122% (inactive)"
- compound: "CCOC(=O)C1=C(NC)OCC1=O"
  result: "115% (inactive)"
